Sourced from PubChem BioAssay (NCI)

- System: OVCAR-8 ovarian
- experimentNotes: NCI-60 one-dose screen, 48 h
- runConditions: 10 µM unless noted
About 83,000 compounds went through this panel and 20% of them were active in at least one assay; those are over-represented in the sample as a whole. The source made the active and inactive calls. Rule for the calls: active = growth percent below 10; inactive = the rest.
Respond with a class label; see active, inactive

compound	class
N#Cc1nc(-c2ccc(Cl)cc2)oc1N1CCC(S(=O)(=O)N2CCOCC2)CC1	inactive

What classification did O=C(CCCCCCNC(=O)C(O)(O)C(F)(F)F)Nc1nc2ccccc2s1 end up with in this test?
active

What classification did CS(=O)(=O)c1ccc(/C(=N/N=C(N)N)c2ccc(F)cc2)cc1 end up with in this test?
inactive

What classification did O=c1[nH][nH]c(-c2ccc(F)cc2)c1-c1nc2ccccc2s1 end up with in this test?
inactive

What classification did Cc1cc(=O)[nH]c(O)c1C#N end up with in this test?
inactive

What classification did O=C(CSc1nc2ccccc2c(=O)n1CCc1ccccc1)Nc1ccc(S(=O)(=O)Nc2ccc(Cl)nn2)cc1 end up with in this test?
inactive

###

- System: SF-539 CNS
- experimentNotes: NCI-60 one-dose screen, 48 h
- runConditions: 10 µM unless noted
Compounds without any hit were thinned out: in the full panel of roughly 83,000, 20% have a hit. The source made the active and inactive calls. Rule for the calls: active = growth percent below 10; inactive = the rest.
Respond with a class label; see active, inactive

Solved entries:
structureSmiles	class
COC(=O)N1CCN(CCNCc2ccc(NC(=O)c3ccc(C)c(C#Cc4cnc5cccnn45)c3)cc2C(F)(F)F)CC1	active
O=C1Nc2cc(Cl)ccc2/C1=C\c1ccc(OCc2ccccc2)cc1	inactive
C=C(C)[C@@H]1CC[C@]2(C(=O)O)CC[C@]3(C)[C@H](CC[C@@H]4[C@@]5(C)C/C(=C/c6ccccn6)C(=O)C(C)(C)[C@@H]5CC[C@]43C)[C@@H]12	inactive
CCN(CC)c1ccc(/C=N/NC(=O)c2ccc(S(N)(=O)=O)cc2)cc1	inactive
O=C1[C@@H]2Cc3c([nH]c4ccccc34)[C@H](c3ccc(Br)cc3)N2C(=O)CN1C1CCN(Cc2c(Cl)cccc2Cl)CC1	inactive

What classification did COc1ccccc1/C=C/C(=O)c1nnn(-c2ccc(F)cc2)c1C end up with in this test?
inactive

What classification did COc1cc(C(C)=C(c2ccc(OCCN(C)C)cc2)c2ccc(OCCN(C)C)cc2)ccc1F end up with in this test?
inactive

What classification did CCN(CC)CCOc1ccc(C(=C(C)c2ccc(OC)cc2)c2ccc(OCCN(CC)CC)cc2)cc1 end up with in this test?
active

###

- Tested on: T-47D breast
- experimentNotes: NCI-60 one-dose screen, 48 h
- runConditions: 10 µM unless noted
The panel holds about 83,000 compounds, 20% with a hit somewhere; the sample as a whole holds those more often. Activity calls are given as the source filed them. The calls were made as follows: active = growth percent below 10; inactive = the rest.
Respond with a class label; see active, inactive

molecule	systemName	class
CN1CCN(Cc2ccc(NC(=O)c3cncc(C#Cc4cnc5ccc(O[C@@H]6CCOC6)nn45)c3)cc2C(F)(F)F)CC1	T-47D breast	active
COc1ccc(C2C(C#N)=C(/N=C/c3ccc(Cl)cc3)Oc3c2sc2c(C)cccc32)cc1 (centres undefined)	T-47D breast	inactive
CN1CCN(Cc2ccc(NC(=O)c3cncc(C#Cc4cnc5ccc(OCC6COC6)nn45)c3)cc2C(F)(F)F)CC1	T-47D breast	active
Cc1ccc2c(n1)C(=O)C(Cl)=C(Nc1ccc(C(=O)OC(C)(C)C)cc1)C2=O	T-47D breast	active

What classification did O=c1oc2ccc(-c3ccc(F)cc3F)cc2c(=O)n1-c1ccc(Br)cc1F end up with in this test?
active

What classification did CCc1cc2c(cc1Cl)nc1c(=O)[nH]c(=O)nc-1n2CCOCC(C)(C)C end up with in this test?
inactive

What classification did Cc1[nH]c(C(=O)Nc2ccccc2OCc2cccc(C(=O)NCCN)c2)cc1Cl end up with in this test?
inactive

What classification did CN(C)S(=O)(=O)c1ccc(-c2nc(C(Cl)Cl)nc3cc(-c4ccc(F)cc4)nn23)cc1 end up with in this test?
inactive

What classification did C#C[C@]1(O)CC[C@H]2[C@@H]3CC=C4c5sc(NCc6ccccc6)nc5CC[C@]4(C)[C@H]3CC[C@@]21C end up with in this test?
inactive
